Collected GI50 values appear next to each entry.
tested on: SF-539; assay: NCI tumour cell line growth inhibition, 48 h
Active and inactive are the calls of the source. No stated cut-off is given here; in the data, active = GI50 up to about 1.1 µM and inactive = higher.
measurement_kind: GI50

>>> recorded_value("NC(=O)C(=CNC(=S)Nc1cccc(C(F)(F)F)c1)C(N)=O")
"> 100 µM (inactive)"
>>> recorded_value("COc1ccc2cc1Oc1ccc(cc1)CC1c3cc(OC)c(cc3CCN1C)Oc1c(OC)c(OC)cc3c1C(C2)N(C)CC3 (stereo unspecified)")
"8.95 µM (inactive)"
>>> recorded_value("Cn1c(SCc2ccc(F)cc2)nnc1C12CC3CC(CC(C3)C1)C2")
"24.5 µM (inactive)"
>>> recorded_value("CCOC(=O)c1ccc(N(CCOS(C)(=O)=O)CCOS(C)(=O)=O)cc1")
"25.1 µM (inactive)"
>>> recorded_value("COc1ccc(C2(O)C(S(=O)(=O)c3ccc(C)cc3)=Cc3ccc(OC)cc32)cc1 (stereo unspecified)")
"43.5 µM (inactive)"
>>> recorded_value("CC1(C)C/C(=N/O)c2c(nc3ccc4ccccc4c3c2-c2ccc(Cl)cc2)C1")
"16.6 µM (inactive)"
>>> recorded_value("O=C1NC(N2CCCC(CO)C2)=N/C1=C\\c1cccs1 (stereo unspecified)")
"> 100 µM (inactive)"
>>> recorded_value("COC(=O)c1ccc2c(c1)CC1(C2)Cc2cc3c(cc2C1=O)CCC3 (stereo unspecified)")
"> 100 µM (inactive)"
>>> recorded_value("CC(=O)OCCOCNC(=S)N/N=C/c1ccc([N+](=O)[O-])s1")
"34 µM (inactive)"
>>> recorded_value("COc1nc2c(nc(N)n2C2OC(CO)C(O)C(O)C2O)c(=O)n1C (stereo unspecified)")
"> 100 µM (inactive)"
>>> recorded_value("O=c1cnn(C/C=C/CBr)c(=O)[nH]1")
"16.1 µM (inactive)"
>>> recorded_value("CCCCCCOc1ccc(NC2=C(Cl)C(=O)c3c(O)ccc(O)c3C2=O)cc1")
"2.4 µM (inactive)"
>>> recorded_value("Cn1c(=O)cc(NNc2ccc(Br)cc2)[nH]c1=O")
"3.31 µM (inactive)"
>>> recorded_value("O=C(NC1CCCCC1)c1nn[nH]c1Cl")
"> 100 µM (inactive)"
>>> recorded_value("C=C(C)C1CC2(C)C(C)CC(OC(=O)/C(C)=C\\C)CC2C(OC(=O)/C(C)=C\\C)C1O (stereo unspecified)")
"> 100 µM (inactive)"
>>> recorded_value("N=C(N)NCCCC(NC(=O)OCCCCCn1ccc(N)nc1=O)C(=O)O (stereo unspecified)")
"> 100 µM (inactive)"
>>> recorded_value("C=C1C(=O)[C@@]23CC[C@H]4[C@@](C)(CCC[C@@]4(C)C(=O)OC)[C@@H]2CC[C@]1(O)C3")
"1.76 µM (inactive)"
>>> recorded_value("Nc1ccc2c(=O)cc(-c3ccc(Br)s3)[nH]c2n1")
"2.16 µM (inactive)"
>>> recorded_value("O=C(O)c1ccc2c(c1)Cc1cc([N+](=O)[O-])ccc1-2")
"> 100 µM (inactive)"
>>> recorded_value("CCOC(=O)c1cc([N+](=O)[O-])cc([N+](=O)[O-])c1Sc1[nH]cnc2ncnc1-2")
"2.92 µM (inactive)"
>>> recorded_value("Cc1c(O)c(C)c2c(C)cn(C(=O)C(C)(C)C)c2c1C")
"16.4 µM (inactive)"
